In this section, each of the variants is paired with its reported protein stability index.
B1: HDAC6 (parent)
chain: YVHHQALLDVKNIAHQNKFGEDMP

- Variants of: B1
- EXPERIMENT_SUMMARY: protein stability index of a GFP-peptide fusion (GPS, HEK-293T) (PSI 1-6); higher = more stable;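 also: lentivirally expressed fusions sorted by FACS into six bins by GFP to DsRed ratio, PSI derived from sequencing read proportions per bin multiplied by bin number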
- CONDITION_INFO: c terminus: a fixed tail appended
# output: bare number, no unit

Worked set:
SEQUENCE_DATA	protein stability index
YVHHQALLDVKNIAHQYKFGEDMP [N17Y]	1.57
YVHHQALLDVKNIAHQNKFGEDFP [M23F]	2.23
YVHHQALLDVKNISHQNKFGEDMP [A14S]	2.35
YVHHQALLDVKKIAHQNKFGEDMP [N12K]	2.18
YVHHQALLDVKNIAHQNKFGFDMP [E21F]	2.54

Consider the record given below.
Looking up AVHHQALLDVKNIAHQNKFGEDMP [Y1A] , I found its protein stability index recorded as 4.15

Recorded values, source the supplement of paper PMC10567573.
